# experimentalSystem: R140Q IDH2 (Homo sapiens, UniProt P48735, R140Q)
# Construct: made in house; host or cells: Sf21 insect cells (cell pellets prepared at Evotec)
# Sequence (P48735 40-452 R140Q): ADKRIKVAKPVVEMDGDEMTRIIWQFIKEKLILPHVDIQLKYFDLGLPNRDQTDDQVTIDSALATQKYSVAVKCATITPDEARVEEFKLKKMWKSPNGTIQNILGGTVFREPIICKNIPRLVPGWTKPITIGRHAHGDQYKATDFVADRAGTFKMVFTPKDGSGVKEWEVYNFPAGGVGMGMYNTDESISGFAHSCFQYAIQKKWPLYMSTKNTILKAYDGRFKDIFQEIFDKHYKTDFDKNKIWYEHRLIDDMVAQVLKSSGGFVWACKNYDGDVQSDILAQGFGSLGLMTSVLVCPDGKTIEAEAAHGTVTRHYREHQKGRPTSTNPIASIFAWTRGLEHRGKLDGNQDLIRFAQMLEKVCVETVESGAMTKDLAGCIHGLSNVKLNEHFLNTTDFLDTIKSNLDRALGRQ
# experimentDescription: Absorbance assay, variant activity in the presence of equimolar 2OG (inhibition screen)
# Assay type: biochemical
# conditionsUsed: 6.0 mM 2OG and 6.0 mM test compound, 0.03 μM R140Q IDH2, 50 μM NADPH
Quick reference for activity [%] (%-substrate conversion after 20 min incubation) among some molecules
Give the value in % but do not write % after it.

Here are 5 molecules together with their reported answers.
molecule	measurementUnit	quantitativeReadout
O=C(O)/C=C/C(=O)O [fumaric acid]	%	112
O=C(O)C(=O)c1cccc(C(=O)O)c1 [compound 29]	%	95
CC(C)(CC(=O)C(=O)O)C(=O)O [compound 13, 4,4-dimethyl-2OG]	%	117
O=C(O)CC(=O)O [malonic acid]	%	117
CC[C@H](C)C(=O)C(=O)O [α-ketoisoleucine]	%	102

Okay, now this molecule:
## Task Specify reported activity [%] (%-substrate conversion after 20 min incubation) for the molecule shown: O=C(O)C(=O)C1C2C=CC(C2)C1C(=O)O (racemic) [compound 28]
## Result 114

* * *

# experimentalSystem: WT IDH1 (Homo sapiens)
# Construct: made in house; host or cells: Escherichia coli BL21(DE3) pLyS
# Sequence (O75874 whole entry): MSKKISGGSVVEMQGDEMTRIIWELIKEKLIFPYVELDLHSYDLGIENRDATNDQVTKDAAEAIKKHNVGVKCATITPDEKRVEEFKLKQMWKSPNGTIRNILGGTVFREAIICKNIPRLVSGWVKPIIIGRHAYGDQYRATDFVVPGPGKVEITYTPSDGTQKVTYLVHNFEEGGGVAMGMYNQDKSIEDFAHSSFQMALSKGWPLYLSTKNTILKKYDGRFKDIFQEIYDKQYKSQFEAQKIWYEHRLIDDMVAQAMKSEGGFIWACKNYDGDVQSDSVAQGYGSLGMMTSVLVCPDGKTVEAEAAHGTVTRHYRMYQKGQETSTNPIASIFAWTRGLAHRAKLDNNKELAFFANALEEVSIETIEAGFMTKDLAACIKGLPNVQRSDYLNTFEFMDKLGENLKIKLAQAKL
# experimentDescription: Absorbance assay, WT activity in the presence of equimolar DL-isocitrate (inhibition)
# Type: biochemical
# conditionsUsed: […] isocitrate and […] test compound, 75 μM NADP+, 2.0 nM WT IDH1
# Procedure: Compounds were dispensed using a CyBio SDW-CW CyBi-Well Simultaneous Pipettor and assay started using a ThermoFisher Multidrop Combi reagent dispenser. Reactions were performed as technical quadruplicates.
Structures can show the parent of a compound that is named as a salt.
valueKind: activity [%] (%-substrate conversion after 20 min incubation) (%)
Quick note: give the figure in %, leave out the unit.

A selection of reference data follows.
compound	quantitativeReadout
O=C[C@H](O)[C@@H](O)[C@H](O)[C@H](O)C(=O)O	106
C=C(CC(=O)O)C(=O)O	99
CCOC(=O)/C=C/C(=O)O [mono-ethyl fumarate]	106
COC(=O)/C=C/C(=O)OC [dimethyl fumarate]	104
O=C(O)CC(=O)O	100

## Task Look up and state reported activity [%] (%-substrate conversion after 20 min incubation) for O=C(O)CC(=O)C(=O)O
## Result 100

## Task Report activity [%] (%-substrate conversion after 20 min incubation), nothing else, for this compound: O=C(O)CCCC(=O)C(=O)O
## Result 108

## Task Report activity [%] (%-substrate conversion after 20 min incubation) for CC1(C)C(C(=O)O)C1C(=O)C(=O)O (mixture of isomers)
## Result 96

## Task Kindly indicate its recorded activity [%] (%-substrate conversion after 20 min incubation). Item: O=C(O)C(=O)CC(O)C(=O)O (racemic) [DL-4-hydroxy-2-oxoglutaric acid]
## Result 89

## Task Complete the entry with activity [%] (%-substrate conversion after 20 min incubation) for CCCCC(CC(=O)O)C(=O)C(=O)O (stereo not drawn)
## Result 96

## Task // Input: O=C(O)/C=C/C(=O)O . Output its activity [%] (%-substrate conversion after 20 min incubation) only.
## Result 98

## Task Identify measured activity [%] (%-substrate conversion after 20 min incubation) associated with O=C(O)CC(Cc1ccccc1)C(=O)C(=O)O (stereo not drawn)
## Result 94

## Task Kindly indicate its recorded activity [%] (%-substrate conversion after 20 min incubation). Item: O=C(O)CCC(=O)O
## Result 97

## Task Annotate the compound O=C(O)C(=O)CC(Cc1ccccc1)C(=O)O (racemic) with its measured activity [%] (%-substrate conversion after 20 min incubation).
## Result 98

## Task State its activity [%] (%-substrate conversion after 20 min incubation) for this compound: CC(C)(CC(=O)C(=O)O)C(=O)O
## Result 106

## Task Supply measured activity [%] (%-substrate conversion after 20 min incubation) of CC(CC(=O)O)C(=O)O (racemic) in your reply.
## Result 103

## Task Please give measured activity [%] (%-substrate conversion after 20 min incubation) of the following entry: C/C(=C\C(=O)O)C(=O)O
## Result 105

## Task Given O=C(O)CC(CCCc1ccccc1)C(=O)C(=O)O (racemic) , respond with its activity [%] (%-substrate conversion after 20 min incubation).
## Result 96
